- experimentalDetails: Metabolic stability in mouse liver microsomes assessed as compound remaining after 30 mins
- Assay type: ADME
- testParameters: read-out: Stability
# remaining at 0.5 h per entry
recordedMetric: remaining at 0.5 h (%)

> print(dat)
                            smilesstructure  endpointunit  readoutvalue
1  C[C@H]1CN(c2ccc(C#N)cc2)CCN1c1cccc(C(=O)N[C@H]2C3CC4CC2C[C@](O)(C4)C3)n1             %            82
2  N#Cc1ccc(N2CCN(c3cccc(C(=O)N[C@H]4C5CC6CC4C[C@](O)(C6)C5)n3)CC2)cc1F             %            79
3  O=C(N[C@H]1C2CC3CC1C[C@](O)(C3)C2)c1cccc(N2CCN(c3ccc(C(F)(F)F)cc3)CC2)n1             %            79
4  N#Cc1ccc(N2CCN(c3cccc(C(=O)N[C@H]4C5CC6CC4C[C@](O)(C6)C5)n3)CC2)nc1             %            81

----------
- experimentalDetails: Metabolic stability in mouse liver microsomes assessed as compound remaining after 30 mins
- Format: ADME
- testParameters: read-out: Stability
# remaining at 0.5 h per entry
recordedMetric: remaining at 0.5 h (%)

> print(dat)
                            smilesstructure  readoutvalue
1  N#Cc1ccc(C2CCN(c3cccc(C(=O)N[C@H]4C5CC6CC4C[C@](O)(C6)C5)n3)CC2)cc1            46
2  C[C@@H]1CN(c2ccc(C(C)(C)O)cc2)CCN1c1cccc(C(=O)N[C@H]2C3CC4CC2C[C@](O)(C4)C3)n1            84
3  C[C@@H]1CN(c2ccc(C#N)cc2)CCN1c1cccc(C(=O)N[C@H]2C3CC4CC2C[C@](O)(C4)C3)n1            84
